# System name: Norwalk GGI.1 Norovirus protease (Norovirus)
# Sequence (Q83883 1101-1281): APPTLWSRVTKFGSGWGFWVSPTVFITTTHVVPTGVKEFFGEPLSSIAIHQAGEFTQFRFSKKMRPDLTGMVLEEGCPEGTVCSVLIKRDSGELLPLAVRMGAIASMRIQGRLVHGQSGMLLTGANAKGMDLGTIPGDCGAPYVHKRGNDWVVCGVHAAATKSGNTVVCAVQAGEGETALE
# Test name: Noro-Norwalk FRET protease assay (Norwalk GGI.1)
# Format: biochemical, Norwalk virus
# Experimental conditions: Table C; FRET protease assay; read-out: Norwalk GGI.1 IC50
# Procedure: Viral protease assays: The antiviral activities of inhibitors were determined by FRET (Fluorescence Resonance Energy Transfer) assay. Purified viral protease was incubated with the protease substrate peptide (Edans-DFHLQ/GP-Dabcyl) and inhibitor, and IC50 values were subsequently determined by the fluorescence signals. The Noro-Norwalk FRET protease assay was performed in 50 mM HEPES-Na pH 8, 50 mM NaCl, 0.4 mM EDTA, 4% glycerol, and 6 mM DTT. […]
Reported IC50 values are given for each entry in this list.
Assay metric: IC50

Compound: CCOCCOCCN(C)C(=O)CC[C@@H](C=O)NC(=O)[C@H](CC1CCCCC1)NC(=O)OCc1cccc(Cl)c1 [Compound A25]
Reported value: 17.2 µM
//
Compound: CN(C(=O)CC[C@@H](C=O)NC(=O)[C@H](CC1CCCCC1)NC(=O)OCc1cccc(Cl)c1)c1ccccc1 [Compound A19]
Reported value: 1 µM
//
Compound: CN(CCc1cccc(Cl)c1)C(=O)CC[C@@H](CO)NC(=O)[C@H](CC1CCCCC1)NC(=O)OCc1cccc(Cl)c1 [Compound A24]
Reported value: > 200 µM
//
Compound: O=C[C@H](CCC(=O)N1CCCCc2ccccc21)NC(=O)[C@H](CC1CCCCC1)NC(=O)OCc1cccc(Cl)c1 [Compound A107]
Reported value: 39.6 µM
//
Compound: CN(CCc1ccc(Cl)cc1)C(=O)CC[C@@H](C=O)NC(=O)[C@H](CC1CCCCC1)NC(=O)OCc1cccc(Cl)c1 (stereo in doubt) [Compound A48]
Reported value: 8.7 µM
//
Compound: CCN(CCc1ccccc1)C(=O)CC[C@@H](C=O)NC(=O)[C@H](CC1CCCCC1)NC(=O)OCc1cccc(Cl)c1 (stereo in doubt) [Compound A56]
Reported value: 9.3 µM

---

# System name: SARS2 protease (Severe acute respiratory syndrome coronavirus 2)
# Test name: SARS-CoV-2 protease inhibition assay (SARS2 FRET protease assay)
# Format: biochemical
# Experimental conditions: Table E; SARS-CoV-2 protease inhibition; read-out: IC50
Assay metric: IC50

Compound: CCNC(=O)CN(C)C(=O)CC[C@H](NC(=O)[C@H](CC1CCCCC1)NC(=O)OCc1cccc(Cl)c1)C(O)P(=O)(OCC)OCC (some centres unmarked)
Reported value: 169 µM

Compound: CCOP(=O)(OCC)C(O)[C@H](CCC(=O)N(CC)CCc1ccccc1)NC(=O)[C@H](CC1CCCCC1)NC(=O)OCc1cccc(Cl)c1 (some centres unmarked)
Reported value: 9.7 µM

Compound: CCOP(=O)(OCC)C(O)[C@@H]1CC2(CC=CCCCC(Cc3ccccc3)C(=O)N[C@@H](CC(C)C)C(=O)N1)CCNC2=O (some centres unmarked)
Reported value: 46.5 µM

Compound: CCCCCCCCC(=O)N[C@@H](CC(C)C)C(=O)NC1CCC(=O)N(C)C1(O)C(=O)NC(C)C (stereo in doubt)
Reported value: > 200 µM

Compound: CCS(=O)(=O)NCCN(C)C(=O)CC[C@H](NC(=O)[C@H](CC1CCCCC1)NC(=O)OCc1cccc(Cl)c1)C(=O)N(C)OC (stereo in doubt)
Reported value: > 200 µM

Compound: CCNC(=O)OCCN(C)C(=O)CC[C@@H](C=O)NC(=O)[C@H](CC1CCCCC1)NC(=O)OCc1cccc(Cl)c1 (stereo in doubt)
Reported value: > 200 µM

Compound: CCCCCCCC1CC/C=C/CC(C(=O)NC)C[C@@H](C(=O)N(C)OC)NC(=O)C(CC(C)C)NC(=O)O1 (single isomer, unassigned) [Compound B33]
Reported value: > 200 µM

Compound: CCCCCCCC1CC/C=C/CC(C(=O)NC)C[C@@H](C(=O)N(C)OC)NC(=O)C(CC(C)C)NC(=O)O1 (single isomer, unassigned) [Compound B32]
Reported value: > 200 µM

Compound: CON(C)C(=O)[C@H](CCC(=O)N(C)CCc1ccccc1Cl)NC(=O)[C@H](CC1CCCCC1)NC(=O)OCc1cccc(Cl)c1 (stereo in doubt)
Reported value: 5.3 µM

Compound: CCOP(=O)(OCC)C(O)[C@@H]1CC(C(=O)N(C)C)CCCCCC(Cc2ccccc2)OC(=O)N[C@@H](CC(C)C)C(=O)N1 (some centres unmarked)
Reported value: > 200 µM

Compound: CCOCCN(C)C(=O)CC[C@@H](C=O)NC(=O)[C@H](CC1CCCCC1)NC(=O)OCc1cccc(Cl)c1
Reported value: 0.98 µM

Compound: O=C[C@H](CCC(=O)N1CCOC(c2ccccc2)C1)NC(=O)[C@H](CC1CCCCC1)NC(=O)OCc1cccc(Cl)c1 (stereo in doubt)
Reported value: > 200 µM

Compound: CON(C)C(=O)[C@H](CCC(=O)N1CCCC(c2ccccc2)C1)NC(=O)[C@H](CC1CCCCC1)NC(=O)OCc1cccc(Cl)c1 (stereo in doubt)
Reported value: 185 µM

Compound: CON(C)C(=O)[C@H](CCC(=O)N(C)CCc1ccc(Cl)cc1)NC(=O)[C@H](CC1CCCCC1)NC(=O)OCc1cccc(Cl)c1 (stereo in doubt)
Reported value: 30 µM

Compound: CCOP(=O)(OCC)C(O)[C@H](CCC(=O)N(C)Cc1ccccc1)NC(=O)[C@H](CC1CCCCC1)NC(=O)OCc1cccc(Cl)c1 (some centres unmarked)
Reported value: > 200 µM

Compound: CCOC(=O)NCCN(C)C(=O)CC[C@H](NC(=O)[C@H](CC1CCCCC1)NC(=O)OCc1cccc(Cl)c1)C(O)P(=O)(OCC)OCC (some centres unmarked)
Reported value: 46 µM

Compound: CCN(CCc1ccccc1)C(=O)CC[C@@H](C=O)NC(=O)[C@H](CC1CCCCC1)NC(=O)OCc1cccc(Cl)c1 (stereo in doubt)
Reported value: > 200 µM

Compound: CN(CCc1ccccc1)C(=O)CC[C@@H](C=O)NC(=O)[C@H](CC1CCCCC1)NC(=O)OCc1cccc(Cl)c1 (stereo in doubt)
Reported value: > 200 µM

Compound: O=C[C@H](CCC(=O)N1CCCC(c2ccccc2)C1)NC(=O)[C@H](CC1CCCCC1)NC(=O)OCc1cccc(Cl)c1 (stereo in doubt)
Reported value: 16.7 µM

Compound: CN(CCc1ccccc1Cl)C(=O)CC[C@@H](C=O)NC(=O)[C@H](CC1CCCCC1)NC(=O)OCc1cccc(Cl)c1
Reported value: > 200 µM

Compound: CC(CN(C)C(=O)CC[C@@H](C=O)NC(=O)[C@H](CC1CCCCC1)NC(=O)OCc1cccc(Cl)c1)c1ccccc1 (stereo in doubt)
Reported value: > 200 µM

Compound: CCCCCCCC1CCCCCC(C(=O)N(C)C)CC(C(=O)N(C)OC)NC(=O)[C@H](CC(C)C)NC1=O (stereo in doubt)
Reported value: > 200 µM

Compound: CCOP(=O)(OCC)C(O)[C@H](CCC(=O)N(C)CC(C)c1ccccc1)NC(=O)[C@H](CC1CCCCC1)NC(=O)OCc1cccc(Cl)c1 (some centres unmarked)
Reported value: > 200 µM

---

# System name: SARS2 protease (Severe acute respiratory syndrome coronavirus 2)
# Test name: SARS-CoV-2 protease inhibition assay (SARS2 FRET protease assay)
# Format: biochemical
# Experimental conditions: Table E; SARS-CoV-2 protease inhibition; read-out: IC50
Assay metric: IC50

Compound: CN(CCc1cccc(Cl)c1)C(=O)CC[C@@H](CO)NC(=O)[C@H](CC1CCCCC1)NC(=O)OCc1cccc(Cl)c1 [Compound A24]
Reported value: > 200 µM

Compound: CON(C)C(=O)[C@H](CC(C)C(=O)N(C)CCc1ccccc1)NC(=O)[C@H](CC1CCCCC1)NC(=O)OCc1cccc(Cl)c1 (stereo in doubt) [Compound A37]
Reported value: > 200 µM

Compound: CCCCCN(C)C(=O)CC[C@H](NC(=O)[C@H](CC1CCCCC1)NC(=O)OCc1cccc(Cl)c1)C(=O)N(C)OC [Compound A8]
Reported value: 89.8 µM

Compound: CC(C)C[C@@H]1NC(=O)C(Cc2ccccc2)CCCC/C=C/CC2CC(NC1=O)C(O)N(C)C2=O (stereo partly drawn) [Compound B21]
Reported value: 89.8 µM

Compound: CCCCCCCC1CCCCCC(C(=O)N(C)C)CC(C=O)NC(=O)[C@H](CC(C)C)NC1=O (stereo in doubt) [Compound B18]
Reported value: > 200 µM

Compound: CC(C)C[C@@H]1NC(=O)C(Cc2ccccc2)CCCCCCCC2CC(NC1=O)C(O)N(C)C2=O (stereo partly drawn) [Compound B24]
Reported value: 188 µM

Compound: CCNC(=O)NCCN(C)C(=O)CC[C@H](NC(=O)[C@H](CC1CCCCC1)NC(=O)OCc1cccc(Cl)c1)C(O)P(=O)(OCC)OCC (stereo partly drawn) [Compound A16]
Reported value: > 200 µM

Compound: CCCCCCCC1CC/C=C\CC(C(=O)NC)C[C@@H](CO)NC(=O)[C@H](CC(C)C)NC1=O (stereo partly drawn) [Compound B65]
Reported value: > 200 µM

Compound: CCCCCCCC1CC/C=C/CC(C(=O)NC)C[C@@H](C(=O)N(C)OC)NC(=O)C(CC(C)C)NC(=O)O1 (single isomer, unassigned) [Compound B35]
Reported value: > 200 µM

Compound: CCNC(=O)NCCN(C)C(=O)CC[C@@H](CO)NC(=O)[C@H](CC1CCCCC1)NC(=O)OCc1cccc(Cl)c1 [Compound A100]
Reported value: > 200 µM

Compound: CCOP(=O)(OCC)C(O)[C@H](CCC(=O)N(C)CCNS(=O)(=O)CC)NC(=O)[C@H](CC1CCCCC1)NC(=O)OCc1cccc(Cl)c1 (stereo partly drawn) [Compound A22]
Reported value: 2.3 µM

Compound: CCCCCN(C)C(=O)CC[C@@H](C=O)NC(=O)[C@H](CC1CCCCC1)NC(=O)OCc1cccc(Cl)c1 [Compound A7]
Reported value: 3.2 µM

Compound: CCCCCCCC1CC/C=C\CC(C(=O)N(C)C)CC(C(=O)N(C)OC)NC(=O)[C@H](CC(C)C)NC1=O (stereo in doubt) [Compound B11]
Reported value: > 200 µM

Compound: CCCCCCCC1CC/C=C/CC(C(=O)NC)C[C@@H](C(=O)N(C)OC)NC(=O)C(CC(C)C)NC(=O)O1 (single isomer, unassigned) [Compound B34]
Reported value: > 200 µM

Compound: CCOP(=O)(OCC)C(O)[C@H](CCC(=O)N(C)CCc1cccc(Cl)c1)NC(=O)[C@H](CC1CCCCC1)NC(=O)OCc1cccc(Cl)c1 (stereo partly drawn) [Compound A34]
Reported value: > 200 µM

Compound: CN(Cc1ccccc1)C(=O)CC[C@@H](C=O)NC(=O)[C@H](CC1CCCCC1)NC(=O)OCc1cccc(Cl)c1 [Compound A18]
Reported value: > 200 µM

Compound: CCCCCCCC1CC/C=C\CC(C(=O)N(C)C)CC(C=O)NC(=O)[C@H](CC(C)C)NC1=O (stereo in doubt) [Compound B10]
Reported value: 105 µM

Compound: CON(C)C(=O)[C@H](CCC(=O)N(C)CCc1ccccc1)NC(=O)[C@H](CC1CCCCC1)NC(=O)OCc1cccc(Cl)c1 (stereo in doubt) [Compound A30]
Reported value: > 200 µM

Compound: CCCCCCCCC(=O)N[C@@H](CC(C)C)C(=O)N[C@H](CO)CCC(=O)NC [Compound A110]
Reported value: > 200 µM

Compound: CON(C)C(=O)[C@H](CCC(=O)N(C)C)NC(=O)[C@H](CC1CCCCC1)NC(=O)OCc1cccc(Cl)c1 [Compound A3]
Reported value: > 200 µM

Compound: CCOCCOCCN(C)C(=O)CC[C@@H](C=O)NC(=O)[C@H](CC1CCCCC1)NC(=O)OCc1cccc(Cl)c1 [Compound A25]
Reported value: > 200 µM

Compound: CCCCCCCC1CC/C=C/CC(C(=O)NC)C[C@@H](C(=O)N(C)OC)NC(=O)[C@H](CC(C)C)NC(=O)O1 (stereo partly drawn) [Compound B64]
Reported value: > 200 µM

Compound: CCOCCN(C)C(=O)CC[C@H](NC(=O)C(CC1CCCCC1)NC(=O)OCc1cccc(Cl)c1)C(O)P(=O)(OCC)OCC (stereo in doubt) [Compound A12]
Reported value: 5.4 µM

Compound: CCOP(=O)(OCC)C(O)[C@@H]1CC(C(=O)NC)C/C=C/CCC(Cc2ccccc2)OC(=O)N[C@@H](CC(C)C)C(=O)N1 (stereo partly drawn) [Compound B27]
Reported value: > 200 µM

The origin of these recorded values is patent US20230151034A1.
